Molecular target: T1, TNFR1 (Homo sapiens, UniProt P19438)
T1 chain: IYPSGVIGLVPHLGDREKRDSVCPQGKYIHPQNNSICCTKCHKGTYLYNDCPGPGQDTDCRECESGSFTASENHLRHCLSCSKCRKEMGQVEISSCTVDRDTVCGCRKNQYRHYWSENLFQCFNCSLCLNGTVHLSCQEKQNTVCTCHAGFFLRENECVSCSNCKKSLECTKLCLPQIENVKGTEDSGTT
Assay: yeast display SC50
reportedProperty: apparent Kd (screen) (nM)

Answered examples (3):
{"binder": "E3Q (designed binder) SMQEEVEKAAKEYEKKKKEAIEKHLEKLKAKDKEAAERFLKELEEAAKEYAKDEAKTMSEEEAKRRAKKYKEKVLLSELSEEEQKEIKEAEEKLVRTILKYVEEAAK", "apparent Kd (screen) [nM]": 2.25}
{"binder": "E61C (designed binder) SMEEEVEKAAKEYEKKKKEAIEKHLEKLKAKDKEAAERFLKELEEAAKEYAKDEAKTMSECEAKRRAKKYKEKVLLSELSEEEQKEIKEAEEKLVRTILKYVEEAAK", "apparent Kd (screen) [nM]": 1.86}
{"binder": "E83D (designed binder) SMEEEVEKAAKEYEKKKKEAIEKHLEKLKAKDKEAAERFLKELEEAAKEYAKDEAKTMSEEEAKRRAKKYKEKVLLSELSEEDQKEIKEAEEKLVRTILKYVEEAAK", "apparent Kd (screen) [nM]": 1.16}

1. A106H (designed binder) SMEEEVEKAAKEYEKKKKEAIEKHLEKLKAKDKEAAERFLKELEEAAKEYAKDEAKTMSEEEAKRRAKKYKEKVLLSELSEEEQKEIKEAEEKLVRTILKYVEEAHK
2. M58D (designed binder) SMEEEVEKAAKEYEKKKKEAIEKHLEKLKAKDKEAAERFLKELEEAAKEYAKDEAKTDSEEEAKRRAKKYKEKVLLSELSEEEQKEIKEAEEKLVRTILKYVEEAAK
3. S1W (designed binder) WMEEEVEKAAKEYEKKKKEAIEKHLEKLKAKDKEAAERFLKELEEAAKEYAKDEAKTMSEEEAKRRAKKYKEKVLLSELSEEEQKEIKEAEEKLVRTILKYVEEAAK
4. A20N (designed binder) SMEEEVEKAAKEYEKKKKENIEKHLEKLKAKDKEAAERFLKELEEAAKEYAKDEAKTMSEEEAKRRAKKYKEKVLLSELSEEEQKEIKEAEEKLVRTILKYVEEAAK
Sort the binders on apparent Kd (screen); start with the lowest figure. Hello, could you send the labels back in the order asked? Thank you.
4, 1, 3, 2
